Test system: MDA-MB-435 melanoma
assay-protocol: NCI-60 one-dose screen, 48 h
settings: 10 µM
Compounds without any hit were thinned out: in the full panel of roughly 83,000, 20% have a hit. Activity calls are given as the source filed them. Rule for the calls: active = growth percent below 10; inactive = the rest.
Labels: YES for active, NO for inactive

| given-smiles | discrete-label |
| --- | --- |
| Cc1nc2ccccc2c(N)c1-c1cc(C)c2c(C)nc3ccccc3c2n1 | NO |
| CC/C(=C(/c1ccc(OCCN(C)C)cc1)c1ccc(OC(=O)CCC(=O)c2c(C)[nH]c(/C=C3\N=C(c4ccc[nH]4)C=C3OC)c2C)cc1)c1ccccc1 | NO |
| Cc1cc2ccccc2nc1-c1ccccc1F | NO |
| NC(=O)CC1(c2ccccc2)CCCCC1 | NO |
| COc1ccc(-c2nn(-c3cccc(NC(=O)c4cccc(C(F)(F)F)c4)c3)cc2-c2ccncc2)cc1Cl | YES |

----------
System: TK-10 renal
assay-protocol: NCI-60 one-dose screen, 48 h (100 = growth as untreated, 0 = no growth, -100 = all killed)
settings: 10 µM
About 83,000 compounds went through this panel and 20% of them were active in at least one assay; those are over-represented in the sample as a whole.
Grouping key: growth. Bins: low bin = under 30%, mid bin = from 30% up to 90%, high bin = 90% and over

| compound | discrete-label |
| --- | --- |
| Nc1c(C(=O)Nc2cccc(F)c2)sc2nc3c(cc12)C(=O)CCC3 | mid bin |
| Nc1ccn(C2CC(O)C(CO)O2)c(=O)n1 (stereo unspecified) | high bin |
| Nc1c(C(=O)Nc2cccc3ccccc23)sc2nc3c(cc12)C(=O)CCC3 | mid bin |
| COc1ccc2c(c1)C(=O)c1c-2c(OCCN2CCCCC2)nc2ccc(OC)cc12 | mid bin |
| Cc1ccc(-c2nc(/C=C3/C(=O)N(C)c4ccc(F)cc43)c3ccccn23)cc1 | high bin |
| CN(C)CCN1C(=O)c2cccc3cc(N)cc(c23)C1=O | mid bin |
| CC(=O)C1CCC2C3CC(F)C4=CC(=O)CCC4(C)C3C(O)CC12C (stereo unspecified) | high bin |
| COc1cc(Nc2ncnc(Nc3ccc4c(n3)NC(=O)C(C)(C)O4)n2)cc(OC)c1OC | low bin |
| Cc1cc(C)c(NC(=O)c2sc3nc4c(cc3c2N)C(=O)CCC4)c(C)c1 | mid bin |
| O=C(/C(=C/c1ccccc1)CN1CCCCC1)c1ccccc1 | low bin |
| Cc1cccc(NC2=C(C#N)C(=O)NC3(CCCC3)S2)c1 | high bin |
| c1ccc2c(c1)oc1c3c(ccc12)NCCC3 | high bin |
| c1ccc(CSc2nnc3c4c5c(sc4nc(-c4cccnc4)n23)CCCCCC5)cc1 | mid bin |
| C#Cc1ccc(-n2c(/C=C/c3ccc4ccccc4c3)nc3ncccc3c2=O)cc1 | low bin |
| O=C1/C(=C/c2ccc([N+](=O)[O-])o2)Oc2ccccc21 | low bin |
| COc1ccc(-n2c(SCc3cc(OC)c(OC)c(OC)c3)nc3ccc(C)cc3c2=O)cc1 | high bin |
| CCCCCCCCCCCCC1C/C=C\CCCC(=O)O1 (stereo unspecified) | high bin |
| CC(C)=NNc1ncnc2c1ncn2C1OC(CO)C(O)C1O (stereo unspecified) | mid bin |
| COc1ccc(-c2nn(-c3cccc(NC(=O)Nc4ccc(Cl)c(C(F)(F)F)c4)c3)cc2-c2ccncc2)cc1Cl | low bin |
| CC(C)C[C@H](NC(=O)[C@H](Cc1cccc2ccccc12)NS(=O)(=O)c1cccc2cccnc12)B(O)O | low bin |

----------
System: UO-31 renal
assay-protocol: NCI-60 one-dose screen, 48 h
settings: 10 µM
This is part of a sample that, as a whole, favours compounds with a hit. Of some 83,000 tested, about 20% had one in any assay. Active and inactive are the calls of the source. How the source made its calls: active means growth percent below 10; inactive means the rest.
Labels: T for active, F for inactive

| compound | discrete-label |
| --- | --- |
| O=C(Nc1cccc(-n2cc(-c3ccncc3)c(-c3ccc(O)c(Cl)c3)n2)c1)Nc1cccc(C(F)(F)F)c1 | T |
| CC[C@H](C)C(=O)O[C@H]1CCC=C2C=C[C@H](C)C(CCC3C[C@@H](O)CC(=O)O3)[C@H]21 (stereo not given in full) | F |
| N=C(N)c1ccc(-c2ccc(-c3ccco3)o2)cc1 | F |
| O=c1[nH]c(-c2ccc(Cl)cc2)nc2sc3c(c12)CCCC3 | F |
| O=C(CC(NC(=O)OCc1ccccc1)C(=O)OCc1ccccc1)OCc1ccccc1 (stereo not given) | F |

----------
Test system: NCI-H322M lung
assay-protocol: NCI-60 one-dose screen, 48 h (100 = growth as untreated, 0 = no growth, -100 = all killed)
settings: 10 µM
This is part of a sample that, as a whole, favours compounds with a hit. Of some 83,000 tested, about 20% had one in any assay.
Returns: string. Value is TRUE if measured growth is below 80%, and FALSE if it is greater than or equal to it.

| molecule | discrete-label |
| --- | --- |
| O=C1/C(=C\c2ccc(F)cc2)CN(C(=O)c2ccc([N+](=O)[O-])cc2)C/C1=C\c1ccc(F)cc1 | TRUE |
| COc1ccc2c(c1)C(=O)c1c-2c(OCCN2CCCCC2)nc2ccc(OC)cc12 | TRUE |
| c1ccc(CO[C@H]2CO[C@H]3[C@@H]2OC[C@H]3OCc2ccccc2)cc1 | FALSE |
| COc1ccc2nc3ccccc3c(NCCNCC(C)O)c2c1 (stereo not given) | TRUE |
| CCCCOc1ccc(NC(=O)Nc2nnc(C)s2)cc1 | FALSE |

----------
Tested on: OVCAR-5 ovarian
assay-protocol: NCI-60 one-dose screen, 48 h (100 = growth as untreated, 0 = no growth, -100 = all killed)
settings: 10 µM
Compounds without any hit were thinned out: in the full panel of roughly 83,000, 20% have a hit. Activity calls are given as the source filed them. The calls were made as follows: active = growth percent below 10; inactive = the rest.

| given-smiles | growth |
| --- | --- |
| COc1cc(-c2cc(C(=O)N3CCN(C(=O)c4ccccc4NCc4ccco4)CC3)nc3cc(-c4ccccc4)nn23)cc(OC)c1OC | 64.1% (inactive) |
| COc1ccc(-c2nc(-c3nc4ccc(Cl)cc4[nH]3)c3ccccn23)cc1 | 82.5% (inactive) |
| CCOC(=O)N1C/C(=C/c2ccc(F)cc2)C(=O)/C(=C/c2ccc(F)cc2)C1 | 24.2% (inactive) |
| COc1cc(Cl)cc(-c2nn(-c3cccc(NC(=O)Nc4cc(C(F)(F)F)cc(C(F)(F)F)c4)c3)cc2-c2ccncc2)c1 | 21.6% (inactive) |

----------
Tested on: 786-0 renal
assay-protocol: NCI-60 one-dose screen, 48 h
settings: 10 µM
This is part of a sample that, as a whole, favours compounds with a hit. Of some 83,000 tested, about 20% had one in any assay. Active and inactive are the calls of the source. Rule for the calls: active = growth percent below 10; inactive = the rest.
Labels: 1 (active), -1 (inactive)

| compound | tested-target | discrete-label |
| --- | --- | --- |
| CN(C)N=Nc1nn(C(=O)Nc2ccc(Cc3ccccc3)cc2)c2ccccc12 | 786-0 renal | -1 |
| C(CCCC1=NCCO1)CCCC1=NCCO1 | 786-0 renal | -1 |
| Cc1cc(Cc2cc(C)c(O)c(C)c2)cc(C)c1O | 786-0 renal | -1 |
| Cc1ccc(C(=O)N2C/C(=C/c3ccccc3)C(=O)/C(=C/c3ccccc3)C2)cc1 | 786-0 renal | -1 |
| Nc1ncn(C2OC(CO)C(O)C2O)c(=O)n1 (configuration not stated) | 786-0 renal | -1 |
| COc1ccc(/C=C2/CN(CCC#N)C/C(=C\c3ccc(OC)cc3)C2=O)cc1 | 786-0 renal | 1 |
| CCCCCCc1cc(N=Nc2ccc(S(=O)(=O)Nc3cc(C)nc(C)n3)cc2)c(O)cc1O | 786-0 renal | -1 |
| NC(=S)N=Nc1c(O)c2ccccc2c2ccccc12 | 786-0 renal | -1 |
| Cc1cc2ccccc2nc1-c1ccccc1F | 786-0 renal | -1 |
| CCC1(C(C)C)NC(=O)NC1=O (configuration not stated) | 786-0 renal | -1 |
| O=C(Nc1ccc(Cl)c([N+](=O)[O-])c1)Nc1nc2ccccc2s1 | 786-0 renal | -1 |
| C=C(Cl)[C@@](Cl)(CBr)CC[C@@H](Br)C(C)(C)Cl | 786-0 renal | 1 |
| COc1ccc(-c2nn(-c3cccc(NC(=O)c4ccc(Cl)c(Cl)c4)c3)cc2-c2ccncc2)cc1Cl | 786-0 renal | -1 |
| O=[N+]([O-])c1ccc(Oc2cc(Cl)c(Cl)cc2Cl)c(C(F)(F)F)c1 | 786-0 renal | -1 |
| OCC1OC(n2cnc3c(N/N=C\c4ccccn4)ncnc32)C(O)C1O (configuration not stated) | 786-0 renal | -1 |
| COc1cc(/C(=C2/O[C@@H]([C@H]3COC(C)(C)O3)[C@H]3OC(C)(C)O[C@@H]23)c2ccc3ccccc3c2)cc(OC)c1OC | 786-0 renal | 1 |
| O=C(O)CCCCSc1ncnc2nc[nH]c12 | 786-0 renal | -1 |
| Cc1occc1-c1nnc(SCC(=O)c2ccc(NC(=O)CC(C)C)cc2)o1 | 786-0 renal | -1 |
| COc1cc(NC(=O)CCSc2nc3ccc(C)cc3c(=O)n2Cc2ccccc2)cc(OC)c1OC | 786-0 renal | -1 |
| Oc1[nH]c2cc(Cl)ccc2c1/C=c1/ccc2c(c1)N=C(c1cc(F)cc(F)c1)N=2 | 786-0 renal | -1 |
| COc1ccc(C2CC(c3ccc(N(C)C)cc3)=NN2c2ccc(S(N)(=O)=O)cc2)cc1 (configuration not stated) | 786-0 renal | -1 |
| CN(CCc1ccccn1)c1ccccc1 | 786-0 renal | -1 |
| CSc1nc(=O)n(Cc2ccc(F)cc2)c(=O)n1Cc1ccc(C)cc1 | 786-0 renal | -1 |
| COc1ccc(Cl)cc1-n1nnc(-c2nc3ccccc3[nH]2)c1N | 786-0 renal | -1 |
| O=C(Nc1ccc(OS(=O)(=O)c2ccccc2)cc1)C12CC3CC(CC(C3)C1)C2 | 786-0 renal | -1 |
| COc1ccc(-c2nn(-c3cccc(NC(=O)c4cc(C(F)(F)F)cc(C(F)(F)F)c4)c3)cc2-c2ccncc2)cc1Cl | 786-0 renal | -1 |
| O=C(Nc1ccncc1)C(=O)c1cn(S(=O)(=O)c2ccc(F)cc2)c2ccccc12 | 786-0 renal | -1 |
| Cc1ccc(NC(=O)Nc2c(Cl)cccc2Cl)cn1 | 786-0 renal | -1 |
| CCCCCCN1CCN(Cc2ccc(N(CC)CC)cc2)C(=O)C1=O | 786-0 renal | -1 |
| Nc1c(C(=O)Nc2cccc3ccccc23)sc2nc3c(cc12)C(=O)CCC3 | 786-0 renal | -1 |
| O=C(Nc1cccc(-n2cc(-c3ccncc3)c(-c3cc(O)cc(Cl)c3)n2)c1)c1ccc(N2CCOCC2)c(C(F)(F)F)c1 | 786-0 renal | -1 |
| CCCCCCCCN(CCCCCCCC)CCCCCCCCCN1CCCc2cc(OC)ccc21 | 786-0 renal | -1 |
| CCOC(=O)N1C/C(=C/c2ccc(F)cc2)C(=O)/C(=C/c2ccc(F)cc2)C1 | 786-0 renal | 1 |
| Cc1ccc(N=Nc2c(N)nc(N)[nH]c2=O)cc1C | 786-0 renal | -1 |
| Nc1c(C(=O)Nc2ccccc2)sc2nc3c(cc12)CCCC3 | 786-0 renal | -1 |
| O=C(Nc1nc(-c2ccccc2Cl)cs1)c1cc(-c2ccc(Cl)cc2)nc2ccc(Cl)cc12 | 786-0 renal | -1 |
| COc1ccc(OC)c(/C=C/c2nnc(Nc3ccc(Cl)cc3)o2)c1 | 786-0 renal | -1 |
| CC(=O)N1C/C(=C/c2ccc(Cl)cc2)C(=O)/C(=C/c2ccc(Cl)cc2)C1 | 786-0 renal | 1 |
| COc1cc(Cl)cc(-c2nn(-c3cccc(NC(=O)c4ccc(Cl)c(Cl)c4)c3)cc2-c2ccncc2)c1 | 786-0 renal | -1 |
| CN(C)c1ccc(-c2cc(-c3cccc(NS(C)(=O)=O)c3)nc(N)c2C#N)cc1 | 786-0 renal | -1 |
| CC1(C)N=C(N)N=C(N)N1c1ccc(CCc2ccccc2)c(Cl)c1 | 786-0 renal | -1 |
| COc1cc(/C=C/C(=O)c2ccc(Cl)cc2)ccc1OS(=O)(=O)c1ccc(C)cc1 | 786-0 renal | -1 |
